System: HEL92.1.7
protocol.text: Cell growth inhibition assay, blood cancer cell line HEL92.1.7
Assay type: cell-based
condition.label: Homo sapiens, HEL 92.1.7, HEL92.1.7 blood cancer cell line
recorded.metric: IC50 (µM)

> print(dat)
                                test.smiles  target.desc  measured.value
1  CC(C)(C)OC(=O)N1CCC(Oc2cc(OC(F)(F)F)cc(C(C)(C)c3cc(Cl)cc(NC(=O)c4cc5cc(NS(C)(=O)=O)ccc5s4)c3)c2)CC1    HEL92.1.7            0.69

P. CN(c1cc2cc(C(=O)Nc3cc(Cl)cc(-c4ccc(F)cc4F)c3)sc2cc1F)S(C)(=O)=O
Q. COc1cc(OC(F)(F)F)cc(C(C)(C)c2cc(Br)cc(NC(=O)c3cc4cc(NS(C)(=O)=O)cnc4s3)c2)c1
Ask | Compare the recorded IC50 of P and Q ; state which is larger. Choose, then provide that item's label.
Reply | Q
